Target: MAP kinase p38 (Homo sapiens, UniProt O15264+Q15759+Q16539+P53778)
Assay: Inhibition of TNF-alpha production by lipopolysaccharide-stimulated human peripheral blood mononuclear cells
Format: functional
Lab note: cut-off is 4 nM. Strictly less in IC50 is Y. Exactly 4 nM or more is N.

Worked set:
{"MOLECULE SMILES": "Nc1ccc2c(-c3ccncc3)c(-c3ccc(F)cc3)[nH]c2n1", "DISCRETE LABEL": "N"}
{"MOLECULE SMILES": "Nc1cc(OCCCc2ccccc2)c2c(-c3ccncc3)c(-c3ccc(F)cc3)[nH]c2n1", "DISCRETE LABEL": "N"}
{"MOLECULE SMILES": "Nc1cc(OCc2ccccc2)c2c(-c3ccncc3)c(-c3ccc(F)cc3)[nH]c2n1", "DISCRETE LABEL": "Y"}

Task: Report whether reported IC50 is lower than 4 nM (strictly) for `COc1cccc(COc2cc(N)[nH]c3nc(-c4ccc(F)cc4)c(-c4ccncc4)c2-3)c1`
Result: Y
